Test system: OVCAR-3 ovarian
Test: NCI-60 one-dose screen, 48 h (100 = growth as untreated, 0 = no growth, -100 = all killed)
Conditions: 10 µM unless noted
About 83,000 compounds went through this panel and 20% of them were active in at least one assay; those are over-represented in the sample as a whole.
quantity.name: growth (%)
Kindly provide the numeric value in % only, without the unit symbol.

Examples from the recorded data:
smiles_code=Nc1ncc(C#Cc2cncc(NC(=O)c3cccc(C(F)(F)F)c3)c2)c2cccnc12 quantity_name=growth scale_unit=% reported=84.6
smiles_code=Cc1c([N+](=O)[O-])cc(C(C)(C)C)cc1[N+](=O)[O-] quantity_name=growth scale_unit=% reported=101

What reported growth corresponds to CCCCCCCCCCCCCCCC(=O)OC[C@@]1(O)C[C@@]23CC[C@@H]4C(C)(C)[C@H](O)CC[C@@]4(C)[C@@H]2CC[C@H]1C3 on OVCAR-3 ovarian?
107

What reported growth corresponds to CN1CCN(CC#CCNC(=O)[C@]23CCC(C)(C)C[C@H]2C2=CC[C@@H]4[C@@]5(C)Cc6c([nH]c7ccccc67)C(C)(C)[C@@H]5CC[C@@]4(C)[C@]2(C)CC3)CC1 on OVCAR-3 ovarian?
72.2
